meta.source: ChEMBL document CHEMBL1127821

Reported pKi values are given for each entry in this list.
# study system: Sodium-dependent serotonin transporter (Rattus norvegicus, UniProt P31652)
# Sequence (P31652 whole entry): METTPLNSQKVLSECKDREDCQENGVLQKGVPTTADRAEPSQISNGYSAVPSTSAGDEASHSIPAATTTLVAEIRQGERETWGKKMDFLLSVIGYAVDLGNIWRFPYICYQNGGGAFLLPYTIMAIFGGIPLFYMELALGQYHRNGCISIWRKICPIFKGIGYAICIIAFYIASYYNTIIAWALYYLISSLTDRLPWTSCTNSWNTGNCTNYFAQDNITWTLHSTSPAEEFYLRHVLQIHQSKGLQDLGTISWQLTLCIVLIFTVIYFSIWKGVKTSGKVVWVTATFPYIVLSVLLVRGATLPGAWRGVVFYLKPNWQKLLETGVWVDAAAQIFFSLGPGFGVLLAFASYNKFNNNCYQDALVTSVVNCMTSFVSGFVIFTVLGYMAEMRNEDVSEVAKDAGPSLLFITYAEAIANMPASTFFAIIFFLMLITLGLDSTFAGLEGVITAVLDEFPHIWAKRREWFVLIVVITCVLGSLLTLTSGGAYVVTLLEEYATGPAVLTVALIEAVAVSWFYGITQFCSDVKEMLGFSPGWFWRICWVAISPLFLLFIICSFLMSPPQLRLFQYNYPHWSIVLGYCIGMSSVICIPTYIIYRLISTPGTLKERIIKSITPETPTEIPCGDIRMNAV
pKi: −log10 of the molar value.
value type: pKi

>>> print(df.to_string())
                                   compound  reported_measurement
0  CCC(=O)C1C(c2ccc3ccccc3c2)CC2CCC1N2C (single isomer, unassigned; (-))                  6.32
1  CC(=O)C1C(c2ccc3ccccc3c2)CC2CCC1N2C (stereo not drawn)                  8.97
2  CCC(=O)C1C(c2ccc3ccccc3c2)CC2CCC1N2C (stereo in doubt; 21a)                  9.40
